Here the recorded EC50 is given for each entry.
assay.info: Trypanosoma cruzi growth suppression in host cells – NIH3T3 host cells, beta-gal luminescence, confirmation (AID 2044);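 also: intracellular parasites grown in NIH/3T3 mouse fibroblasts as host cells; luminescent beta-galactosidase reporter signal from transgenic T. cruzi replicating inside host cells; inhibitors lower the luminescence signal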
Type: functional, cell-based
Activity calls are given as the source filed them.
assay.readout: EC50

compound=O=[N+]([O-])c1nn(-c2ccccc2)[n+]([O-])c1NCCc1ccccc1 assay_readout=EC50 observed="478 nM (active)"
compound=COc1ccc(Cn2c(-c3ccc(Br)cc3)c[n+]3ccccc23)cc1 assay_readout=EC50 observed="822 nM (active)"
compound=N#Cc1c(C(F)(F)F)cc(-c2ccco2)nc1SCc1ccncc1 assay_readout=EC50 observed="975 nM (active)"
compound=CC(C)(C)OC(=O)NCCCC[C@H](NC(=O)c1[nH]cnc1C(=O)NC(c1ccccc1)c1ccccc1)C(=O)OC(C)(C)C assay_readout=EC50 observed="3480 nM (active)"
compound="COCC1CCCCN1Cc1c[nH]nc1-c1ccc2cc(OC)ccc2c1 (stereo not drawn)" assay_readout=EC50 observed="679 nM (active)"
compound=CN(CCCNC(=O)c1cc2c(Cl)nc3ccccc3c2s1)Cc1ccccc1 assay_readout=EC50 observed="771 nM (active)"
compound="COc1cccc(NC(=S)N2CCn3cccc3C2c2cccnc2)c1 (stereo not drawn)" assay_readout=EC50 observed="1120 nM (active)"
compound=CCCCCCCCCCOC(=O)C[n+]1c(COc2cccc(C)c2)n(C)c2ccccc21 assay_readout=EC50 observed="1000 nM (active)"

---

system.name: Rac GTPase-activating protein 1 (Homo sapiens, UniProt Q9H0H5)
Sequence (Q9H0H5 whole entry): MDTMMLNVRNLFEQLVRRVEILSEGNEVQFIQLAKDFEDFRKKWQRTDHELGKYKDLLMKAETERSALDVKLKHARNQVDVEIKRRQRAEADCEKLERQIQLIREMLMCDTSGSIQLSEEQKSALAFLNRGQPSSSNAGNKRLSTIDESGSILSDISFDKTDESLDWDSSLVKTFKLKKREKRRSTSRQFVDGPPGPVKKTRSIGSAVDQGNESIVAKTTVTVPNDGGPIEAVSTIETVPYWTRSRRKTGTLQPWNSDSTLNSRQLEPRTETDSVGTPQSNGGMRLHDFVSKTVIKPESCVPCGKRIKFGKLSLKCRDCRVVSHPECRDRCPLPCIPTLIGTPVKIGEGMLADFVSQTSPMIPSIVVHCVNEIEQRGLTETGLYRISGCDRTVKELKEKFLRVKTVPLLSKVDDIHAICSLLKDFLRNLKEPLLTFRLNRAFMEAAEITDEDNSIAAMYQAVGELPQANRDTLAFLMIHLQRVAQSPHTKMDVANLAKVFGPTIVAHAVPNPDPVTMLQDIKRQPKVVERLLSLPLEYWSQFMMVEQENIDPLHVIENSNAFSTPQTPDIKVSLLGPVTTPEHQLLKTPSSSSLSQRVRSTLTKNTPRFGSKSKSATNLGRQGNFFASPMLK
assay.info: blockers of MgcRacGAP-driven Rac1 GTP hydrolysis – biochemical, ADP Hunter fluorescence, primary and confirmatory, confirmation (AID 624330)
Format: functional
Activity calls are given as the source filed them.
assay.readout: IC50

molecule=CN(C)c1ccc(NC(=O)COC(=O)CNC(=O)c2cccs2)cc1 system_name="Rac GTPase-activating protein 1 (Homo sapiens, UniProt Q9H0H5)" assay_readout=IC50 observed="45.6 µM (active)"
molecule=Fc1ccc(CN2CCN(C(c3ccccc3)c3ccccc3)CC2)cc1 system_name="Rac GTPase-activating protein 1 (Homo sapiens, UniProt Q9H0H5)" assay_readout=IC50 observed="236 µM (active)"
molecule=Cc1cn([C@H]2C[C@H](O)[C@@H](CNCC3=Cc4cc(O)ccc4OC3)O2)c(=O)[nH]c1=O system_name="Rac GTPase-activating protein 1 (Homo sapiens, UniProt Q9H0H5)" assay_readout=IC50 observed="95.9 µM (active)"
molecule=Cc1ccc2[nH]c(/C(C#N)=C/c3ccc(O)c(O)c3)nc2c1 system_name="Rac GTPase-activating protein 1 (Homo sapiens, UniProt Q9H0H5)" assay_readout=IC50 observed="22.3 µM (active)"
molecule="COc1ccc(NC2CCCN(C(=O)CCN3CCCO3)C2)cc1 (configuration not stated)" system_name="Rac GTPase-activating protein 1 (Homo sapiens, UniProt Q9H0H5)" assay_readout=IC50 observed="128 µM (active)"
molecule=CCOc1ccccc1N1CCN(C/C=C/c2ccc(N(C)C)cc2)CC1 system_name="Rac GTPase-activating protein 1 (Homo sapiens, UniProt Q9H0H5)" assay_readout=IC50 observed="75.8 µM (active)"
molecule=CN(C)c1ccc(/C=C2/C[N+](C)(C)C/C(=C/c3ccc(N(C)C)cc3)C2=O)cc1 system_name="Rac GTPase-activating protein 1 (Homo sapiens, UniProt Q9H0H5)" assay_readout=IC50 observed="82.9 µM (active)"
